% INCREASE FasL overview
Tested on: FasL
Test: FasL expression at the cell surface by flow cytometry, MCF-7 cells
Type: cell-based, human
Details: MCF-7 breast cancer cells, 100 μg/ml sequence, 48 h, treated vs control cells
Description: Cancer cells and PBMCs were seeded in 6 well flat-bottom microplates and were maintained at 37° C. in a 5% CO2 atmosphere. […] Fas and FasL expression were measured by flow cytometry using anti-Fas FITC-conjugated monoclonal antibodies and anti-FasL PE-conjugated monoclonal antibodies in a FACScalibur Flow Cytometer (Becton Dickinson, San Jose, Calif., USA) using the CELLQuest program (Becton Dickinson). […]
Record the value in %, omitting the unit from your answer.

Here are 6 sequences together with their reported answers.
Exercise: GET /values?readout=% INCREASE FasL&system=FasL&item= GTGTGT [SEQ ID NO:2]
Solution: 135

Exercise: Quick one: GGGGGG [SEQ ID NO:16]
Solution: 18

Exercise: Next sequence up: ATGTAT [SEQ ID NO:10]
Solution: 214

Exercise: Queued: CTGTCT [SEQ ID NO:11]
Solution: 128

Exercise: Also need TGTGTG [SEQ ID NO:1] , thanks.
Solution: 121

Exercise: Next sequence: AAGTAA [SEQ ID NO:7]
Solution: 21

Continuing:
Exercise: // lookup % INCREASE FasL | system=FasL | key= GGAAGG [SEQ ID NO:14]
Solution: 84

Exercise: Another: TTTGTT [SEQ ID NO:3]
Solution: 528

Exercise: How about GGGAGG [SEQ ID NO:17] ?
Solution: 194

Exercise: Please answer likewise for GGTGGG [SEQ ID NO:4]
Solution: 110

Exercise: Also check GGCCGG [SEQ ID NO:15]
Solution: 78

Exercise: What do you get for TTGTTT [SEQ ID NO:6] ?
Solution: 159

Exercise: Next sequence: TGGTTG [SEQ ID NO:9]
Solution: 481

Exercise: How about GGGCGG [SEQ ID NO:18] ?
Solution: 322

Exercise: Can you handle GGTTGG [SEQ ID NO:13] next?
Solution: 83

Exercise: Field entry: GGGTGG [SEQ ID NO:5]
Solution: 81

Exercise: Another: CCGTCC [SEQ ID NO:8]
Solution: 322

Exercise: Follow-up entry: TCGTTC [SEQ ID NO:12]
Solution: 98

* * *

Listed here: items and their measured % INCREASE FasL.
system: FasL; experiment: FasL expression at the cell surface by flow cytometry, PBMCs; format: cell-based, human; conditions: 100 μg/ml sequence, 48 h, treated vs control cells

Example entries and their recorded answers appear below.
Exercise: Field request: % INCREASE FasL | item: TCGTTC [SEQ ID NO:12]
Solution: 847%

Exercise: Now the same for TGTGTG [SEQ ID NO:1]
Solution: 260%

Exercise: Try this sequence too: ATGTAT [SEQ ID NO:10]
Solution: 457%

Exercise: What about CTGTCT [SEQ ID NO:11] ?
Solution: 476%

Exercise: Another sequence to check: GGGTGG [SEQ ID NO:5]
Solution: −20%

Further cases:
Exercise: Please look up its % INCREASE FasL: GGTTGG [SEQ ID NO:13]
Solution: −32%

Exercise: Can you check GGCCGG [SEQ ID NO:15] next?
Solution: −29%

Exercise: Request: GGAAGG [SEQ ID NO:14]
Solution: 162%
